Hello, the source for this data is ChEMBL document CHEMBL5665443, in case you need it.

Target: UniProt Q9UIF7
Sequence (Q9UIF7 whole entry): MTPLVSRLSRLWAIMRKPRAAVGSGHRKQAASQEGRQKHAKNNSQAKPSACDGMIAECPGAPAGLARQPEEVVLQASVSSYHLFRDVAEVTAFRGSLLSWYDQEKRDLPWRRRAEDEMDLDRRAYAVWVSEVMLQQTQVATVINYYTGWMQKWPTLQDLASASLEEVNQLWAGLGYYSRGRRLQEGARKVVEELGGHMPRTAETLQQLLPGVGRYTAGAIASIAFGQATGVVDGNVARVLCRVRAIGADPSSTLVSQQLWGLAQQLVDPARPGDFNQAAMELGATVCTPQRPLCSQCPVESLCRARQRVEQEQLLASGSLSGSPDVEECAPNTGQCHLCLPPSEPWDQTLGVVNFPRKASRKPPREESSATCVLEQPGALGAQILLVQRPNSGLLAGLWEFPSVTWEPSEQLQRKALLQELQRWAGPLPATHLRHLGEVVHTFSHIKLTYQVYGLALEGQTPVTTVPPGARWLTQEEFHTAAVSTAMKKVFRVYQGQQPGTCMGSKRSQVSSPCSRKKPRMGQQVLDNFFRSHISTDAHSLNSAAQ
Details: Compound Concentration 10.0 uM, Hit No;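 also: human MUTYH activity read as 594 nm fluorescence from cleavage and release of a quenched DNA duplex, coupled with APE1 for strand incision, lower signal meaning inhibition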
Description: Inhibition of MUTYH by quantifying inhibition of MUTYH-mediated cleavage and dissociation of quenched duplex DNA oligonucleotides, measured as fluorescence at 594 nm. To generate a functional strand incision and increase turn-over this assay is coupled to APE1.
// values below are reported inhibition
measurement label: inhibition (%)

                                    molecule  measurement_unit  meas_value
 0  O=C(O)CC1CCC2(CC1)CCN(c1cc(OC(F)(F)F)ccc1Cl)CC2                 %        19.4
 1  O=[N+]([O-])c1ccc2nc(COCc3nc4ccc([N+](=O)[O-])cc4[nH]3)[nH]c2c1                 %        6.46
 2  Cc1c(OCc2cccc(-c3ccc(C(=O)O)cc3)c2)cc2c(c1C)C(=O)C(C1CCCC1)C2 (centres undefined)                 %       -1.13
 3  Cc1cn([C@@H](C)CC#N)c(=O)c2cc(Cn3nc(C(F)F)cc3Cl)nn12                 %       0.387
 4            CN1CCC(c2c[nH]c3ccc(O)cc23)CC1                 %       -5.79
 5  CN(CCOc1ccc(C[C@H](Nc2ccccc2C(=O)c2ccccc2)C(=O)O)cc1)c1ccccn1                 %       -3.55
 6                N[C@@H](CCP(=O)(O)O)C(=O)O                 %       -5.97
 7  Clc1ccc(C2CC3CCC2N3)cn1 (centres undefined)                 %       -3.17
 8  Cc1c(F)cccc1NC(=O)Nc1ccc(Cl)c(S(=O)(=O)[C@H]2CCCNC2)c1O                 %       -4.97
 9  CC(C)C[C@H](NC(=O)c1cc2ccccc2s1)C(=O)N1CCN(C(=O)[C@H](CO)NS(=O)(=O)c2ccc(Cl)cc2Cl)CC1                 %        4.25
10  COc1cc(C(=O)N(CCCc2ccccc2)Cc2ccc(CC(=O)O)cc2)cc(OC)c1C                 %        20.4
11  COc1cc(-c2cn([C@H]3CCc4ccccc4N(CC(F)(F)F)C3=O)nn2)ccc1-n1ccc(C)n1                 %       -8.57
12  C=CC(=O)Nc1ccc2[nH]c(=O)n(C3CCN(C(=O)c4ccc(-c5nc6cc[nH]c(=O)c6cc5-c5ccccc5)cc4)CC3)c2c1                 %        1.89
13  CNc1ncc2cc(-c3ccc(-c4ncccc4F)cc3Cl)c(=O)n(C[C@H]3OC[C@H](N)CO3)c2n1                 %        10.6
14  CCC(=O)OCC(=O)[C@@]1(OC(=O)CC)[C@@H](C)C[C@H]2[C@@H]3CCC4=CC(=O)C=C[C@]4(C)[C@@]3(Cl)[C@@H](O)C[C@@]21C                 %        11.3
15  COc1ccc(Br)cc1S(=O)(=O)NC(=O)/C=C/c1ccccc1Cc1ccc2ccccc2c1                 %        5.65
16            Cc1ccccc1C#Cc1ccc(CCC(=O)O)cc1                 %        12.8
17  O=C(O)CC/C=C\C[C@@H]1CO[C@H](c2ccccc2Cl)O[C@@H]1c1ccccc1O                 %        8.47
18  CN1CC[C@@]23CCCC[C@@H]2[C@@H]1Cc1ccc(O)cc13                 %       -5.81
